Where do these numbers come from? They come from paper PMC12863215.

Tested on: MaMATE11
Construct: full-length cDNA in pYES2, expressed in Saccharomyces cerevisiae BY4741; microsomal vesicles; 441 residues; 10 predicted transmembrane segments
assay.comment: uptake into yeast microsomal vesicles, HPLC, Lineweaver-Burk
Type: biochemical, Muscari aucheri
measurement.parameters: transport; 5 mM MgATP, 25 mM Tris-MES pH 8.0, 50 mM KCl, 25 °C, 20 min; minus-ATP subtracted
quantity.measured: Km (µM)

Study these solved cases before continuing.
compound	measured.target	units.of.measure	Km
Oc1ccc([C@H]2Oc3cc(O)cc(O)c3C[C@H]2O)cc1 [(−)-epiafzelechin]	MaMATE11	µM	57.4
O=c1c(O)c(-c2ccc(O)cc2)oc2cc(O[C@@H]3O[C@H](CO)[C@@H](O)[C@H](O)[C@H]3O)cc(O)c12 [kaempferol 7-O-glucoside]	MaMATE11	µM	60.2

1: OC[C@H]1O[C@@H](Oc2cc3c(O[C@@H]4O[C@H](CO)[C@@H](O)[C@H](O)[C@H]4O)cc(O)cc3[o+]c2-c2ccc(O)c(O)c2)[C@H](O)[C@@H](O)[C@@H]1O [cyanidin-3,5-di-O-glucoside]
2: OC[C@H]1O[C@@H](Oc2cc3c(O)cc(O)cc3[o+]c2-c2ccc(O)c(O)c2)[C@H](O)[C@@H](O)[C@@H]1O [cyanidin-3-O-glucoside]
stdin: Hey, which is lower on measured Km, 1 or 2 ? When you have decided, please share the label of that item.
stdout: 1
